src = PubChem BioAssay AID2060342

- Tested on: 171881-019-R-J1-PDC multicell spheroid viability;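 further: spheroids exposed to the agents for seven days before readout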
- Assay Text: Anticancer human tumor 171881-019-R-J1-PDC patient-derived invasive breast carcinoma cell line growth inhibition [IpAb]; active means viability on the fitted dose curve at most 10% of control; inactive means the rest
- Test Context: second compound 3.16 µM; first compound 0.0316 µM
Hi! Could you answer with just one of these? active, inactive

Compound	Group Label
Cn1nccc1Nc1nccc(-c2ccn(C(CO)c3ccc(Cl)c(F)c3)c(=O)c2)n1 (stereo not given) + CC(C)NCC(C(=O)N1CCN(c2ncnc3c2C(C)CC3O)CC1)c1ccc(Cl)cc1	active
COc1c(OCCCN2CCOCC2)ccc2c3n(c(=NC(=O)c4cnc(N)nc4)nc12)CCN3 + CC(C)NCC(C(=O)N1CCN(c2ncnc3c2C(C)CC3O)CC1)c1ccc(Cl)cc1	active
C=CC(=O)N1CCN(c2nc(=O)n(-c3c(C)ccnc3C(C)C)c3nc(-c4c(O)cccc4F)c(F)cc23)C(C)C1 (stereo not given) + CC(C)NCC(C(=O)N1CCN(c2ncnc3c2C(C)CC3O)CC1)c1ccc(Cl)cc1	inactive
Cc1nc(NC(=O)N2CCCC2C(N)=O)sc1-c1ccnc(C(C)(C)C(F)(F)F)c1 (stereo not given) + CC(C)NCC(C(=O)N1CCN(c2ncnc3c2C(C)CC3O)CC1)c1ccc(Cl)cc1	inactive
CCCS(=O)(=O)Nc1ccc(F)c(C(=O)c2c[nH]c3ncc(-c4ccc(Cl)cc4)cc23)c1F + CC(C)NCC(C(=O)N1CCN(c2ncnc3c2C(C)CC3O)CC1)c1ccc(Cl)cc1	inactive

## Input Per the records of this test, what outcome belongs to Cn1ncnc1[C@H]1c2n[nH]c(=O)c3cc(F)cc(c23)N[C@@H]1c1ccc(F)cc1 + CC(C)NCC(C(=O)N1CCN(c2ncnc3c2C(C)CC3O)CC1)c1ccc(Cl)cc1 ?
## Output active

## Input Per the records of this test, what outcome belongs to CC1(C)CCC(CN2CCN(c3ccc(C(=O)NS(=O)(=O)c4ccc(NCC5CCOCC5)c([N+](=O)[O-])c4)c(Oc4cnc5[nH]ccc5c4)c3)CC2)=C(c2ccc(Cl)cc2)C1 + CC(C)NCC(C(=O)N1CCN(c2ncnc3c2C(C)CC3O)CC1)c1ccc(Cl)cc1 ?
## Output inactive

## Input Per the records of this test, what outcome belongs to Cn1ncc(Cl)c1-c1cc(C(=O)NC(CN)Cc2cccc(F)c2)sc1Cl (stereo not given) + CC(C)NCC(C(=O)N1CCN(c2ncnc3c2C(C)CC3O)CC1)c1ccc(Cl)cc1 ?
## Output inactive

## Input Per the records of this test, what outcome belongs to C=CCn1c(=O)c2cnc(Nc3ccc(N4CCN(C)CC4)cc3)nc2n1-c1cccc(C(C)(C)O)n1 + CC(C)NCC(C(=O)N1CCN(c2ncnc3c2C(C)CC3O)CC1)c1ccc(Cl)cc1 ?
## Output active

## Input Per the records of this test, what outcome belongs to CC(C)n1nc(-c2ccc3oc(N)nc3c2)c2c(N)ncnc21 + CC(C)NCC(C(=O)N1CCN(c2ncnc3c2C(C)CC3O)CC1)c1ccc(Cl)cc1 ?
## Output active
